Parameter: T/C. Scope: all listed entries.
# System: L1210 leukemia ip in BDF1 mice, survival T/C
# measurement_description: NCI In Vivo Anticancer Drug Screen. Data for tumor model L1210 Leukemia (intraperitoneal) in B6D2F1 (BDF1) mice
# condition_label: endpoint: mean survival time; dose: 50.0 mg/kg/injection; schedule: Q01DX009 (ip); vehicle: Klucel (hydroxypropylcellulose) (HPC); higher = longer survival
Toxic doses and inconclusive results are not listed.

1. O=C(O)CC(NC(=O)OCc1ccccc1)C(=O)O (stereo unspecified): 95 % of control
2. CN(C)c1ccc(/C=C\c2cc(=O)[nH]c3ccccc23)cc1: 100 % of control
3. Cc1c(-c2ccccc2)nn(O)c1-c1ccccc1: 102 % of control
4. Cc1ccc(S(=O)(=O)N/N=C/C(Br)=C(/Br)C(=O)O)cc1: 124 % of control
5. N#Cc1cnc(N)cc1N: 98 % of control

Query string: Please give measured T/C of the following entry: Clc1ccc(C(c2ccc(Cl)cc2)C(Cl)(Cl)Cl)cc1
Result string: 92 % of control

Query string: Please give measured T/C of the following entry: Cc1cccc(NC(=O)NCC(=O)NNC(=O)Nc2cc([N+](=O)[O-])ccc2C)n1
Result string: 100 % of control

Query string: Please give measured T/C of the following entry: COc1ccc(S(=O)(=O)NC(=O)NC23CC4CC(CC(C4)C2)C3)cc1
Result string: 91 % of control

Query string: Please give measured T/C of the following entry: CC(=O)OCC(OC(C)=O)C(OC1OC(COC(C)=O)C(OC(C)=O)C(OC(C)=O)C1OC(C)=O)C(OC(C)=O)C(C=O)OC(C)=O (stereo unspecified)
Result string: 96 % of control

Query string: Please give measured T/C of the following entry: Cc1ccc(C)c(NC(=O)c2ccc(Cl)c(Cl)c2)c1
Result string: 86 % of control

Query string: Please give measured T/C of the following entry: CCCCOS(=O)(=O)c1ccc(N)cc1
Result string: 229 % of control

Query string: Please give measured T/C of the following entry: O=C(O)c1cc(C(=O)c2ccccn2)c2cccc(C(F)(F)F)c2n1
Result string: 98 % of control

Query string: Please give measured T/C of the following entry: OC1CC2c3ccccc3C1c1cccc[n+]12 (stereo unspecified)
Result string: 94 % of control

Query string: Please give measured T/C of the following entry: O=C(O)c1cc([N+](=O)[O-])ccc1Br
Result string: 89 % of control

Query string: Please give measured T/C of the following entry: Cc1cc(=O)[nH]c(N/N=C/c2ccco2)n1
Result string: 96 % of control

Query string: Please give measured T/C of the following entry: COc1ccc(-c2c(COC(C)=O)c(COC(C)=O)c3n2CCC3)cc1
Result string: 113 % of control

Query string: Please give measured T/C of the following entry: CC(C)=CCC(CCN(C)C)(C(N)=O)c1ccc2ccccc2c1 (stereo unspecified)
Result string: 91 % of control

* * *

# Test system: L1210 leukemia ip in BDF1 mice, survival T/C
# measurement_description: NCI In Vivo Anticancer Drug Screen. Data for tumor model L1210 Leukemia (intraperitoneal) in B6D2F1 (BDF1) mice
# condition_label: endpoint: mean survival time; dose: 400.0 mg/kg/injection; schedule: Q04DX002 (ip); vehicle: saline
Toxic doses and inconclusive results are not listed. Cut-off read from the data, not from the text of the source: active = T/C of 150% or more; inactive = T/C below 125%.
Just give me one of these, please: TRUE = active, FALSE = inactive

1. Brc1cnc[nH]1: FALSE

Query string: Look up the recorded call for CCCCCCCCCc1ccc(OC(C)OCCOCCOCC)cc1 (configuration not stated) in this test.
Result string: FALSE

Query string: Look up the recorded call for O=C1CCOP(=O)(NCCCl)N1CCCl (configuration not stated) in this test.
Result string: TRUE

Query string: Look up the recorded call for NCCSC12CC3CC(CC(C3)C1)C2 in this test.
Result string: FALSE

Query string: Look up the recorded call for CC(=O)NC(CC(N)=O)C(=O)O (configuration not stated) in this test.
Result string: FALSE

Query string: Look up the recorded call for NCCc1ccc(O)c(CO)c1 in this test.
Result string: FALSE

Query string: Look up the recorded call for NC(=O)CC(N)C(N)=O (configuration not stated) in this test.
Result string: FALSE

* * *

# Tested on: L1210 leukemia ip in BDF1 mice, survival T/C
# measurement_description: NCI In Vivo Anticancer Drug Screen. Data for tumor model L1210 Leukemia (intraperitoneal) in B6D2F1 (BDF1) mice
# condition_label: endpoint: mean survival time; dose: 50.0 mg/kg/injection; schedule: Q01DX009 (ip); vehicle: saline with Tween-80; higher = longer survival
Toxic doses and inconclusive results are not listed.
measured_quantity: T/C

Some entries whose results are on file:
1. N#CC(OC(OC(C#N)c1ccccc1)c1ccccc1)c1ccccc1 (stereo unspecified): 93 % of control
2. CCOC(=O)CSc1nc2nc(Cl)c(Cl)nc2[nH]1: 98 % of control
3. CC12CCC3(CCC4(C)C(=C3C1)CCC1C3(C)CCC(OC5OC(CO)C(O)C(O)C5O)C(C)(C)C3CCC14C)C(=O)O2 (stereo unspecified): 104 % of control
4. ON=C(CSCc1ccccc1)CSCc1ccccc1: 101 % of control
5. O=C(c1ccccc1)C(SC(=S)OCc1ccccc1)c1ccccc1 (stereo unspecified): 100 % of control
6. CCCCCCCCCCCCSCO: 105 % of control

Query string: Fill in T/C for COC1(c2ccc(Cl)cc2)OC(=O)C(c2ccccc2)=C1Cc1ccccc1 (stereo unspecified) tested with L1210 leukemia ip in BDF1 mice, survival T/C.
Result string: 100 % of control

* * *

Parameter: T/C. Scope: all listed entries.
# Tested on: L1210 leukemia ip in BDF1 mice, survival T/C
# measurement_description: NCI In Vivo Anticancer Drug Screen. Data for tumor model L1210 Leukemia (intraperitoneal) in B6D2F1 (BDF1) mice
# condition_label: endpoint: mean survival time; dose: 75.0 mg/kg/injection; schedule: Q01DX001 (ip); vehicle: carboxymethylcellulose (CMC); higher = longer survival
Toxic doses and inconclusive results are not listed.

1. CN1C2CNC(=O)CC1C1CCC2C1 (stereo unspecified): 106 % of control
2. O=NN(CCCl)C(=O)NC1(C(=O)O)CCCC1: 162 % of control
3. CN(C)Nc1ncnc2nc[nH]c12: 102 % of control
4. O=C(c1ccccc1)C(O)(CCP(=O)(c1ccccc1)c1ccccc1)c1ccccc1 (stereo unspecified): 88 % of control
5. CCOC(=O)N/N=C/c1c(F)cccc1Cl: 101 % of control

Query string: Fill in T/C for O=C(Nc1ccc(Cl)cc1)Nc1ncn[nH]1 tested with L1210 leukemia ip in BDF1 mice, survival T/C.
Result string: 101 % of control

* * *

# System: L1210 leukemia ip in BDF1 mice, survival T/C
# measurement_description: NCI In Vivo Anticancer Drug Screen. Data for tumor model L1210 Leukemia (intraperitoneal) in B6D2F1 (BDF1) mice
# condition_label: endpoint: mean survival time; dose: 12.5 mg/kg/injection; schedule: Q04DX002 (ip); vehicle: Klucel (hydroxypropylcellulose) (HPC); higher = longer survival
Inconclusive results and toxic doses are left out.
measured_quantity: T/C

Some entries whose results are on file:
1) NC(CCSCc1ccccc1)C(=O)O (centres undefined): 107 % of control
2) CCCC(C=NCC(CCC)(CCN(C)C)c1cccc2ccccc12)(CCN(C)C)c1cccc2ccccc12 (centres undefined): 101 % of control
3) c1ccc(C2C(CN3CCCCCC3)C2c2ccccc2)cc1 (centres undefined): 88 % of control

Now for the molecule whose T/C we want.
Query string: Please give measured T/C of the following entry: O=c1[nH]c2ccccc2[nH]1
Result string: 90 % of control

* * *

# Tested on: L1210 leukemia ip in BDF1 mice, survival T/C
# measurement_description: NCI In Vivo Anticancer Drug Screen. Data for tumor model L1210 Leukemia (intraperitoneal) in B6D2F1 (BDF1) mice
# condition_label: endpoint: mean survival time; dose: 200.0 mg/kg/injection; schedule: Q04DX002 (ip); vehicle: Klucel (hydroxypropylcellulose) (HPC); higher = longer survival
Inconclusive results and toxic doses are left out. Square brackets hold non-standard residues; d marks the D form. Peptide text beside a SMILES is read from it. * marks the point of attachment. ξ: configuration not given here. Pentanoyl = CCCCC(=O)*; ξP = O=C(O)C1CCCN1; OtBu = CC(C)(C)O*
Parameter: T/C. Scope: all listed entries.

Some entries whose results are on file:
1. CCCCC(=O)NCC(=O)N1CCCC1C(=O)OC(C)(C)C (stereo not given) (Pentanoyl-Gly-[ξP]-OtBu): 101 % of control
2. O=C(NC(=S)Nc1cccc(Cl)c1)c1ccc(Cl)cc1Cl: 93 % of control
3. O=C(O)CSc1ccc([N+](=O)[O-])cc1[N+](=O)[O-]: 96 % of control

Query string: Please give measured T/C of the following entry: O=C1C=Cc2ccccc2/C1=C/c1nc(-c2ccc(Cl)cc2)oc1O
Result string: 91 % of control

Query string: Please give measured T/C of the following entry: O=c1[nH]cnc2c1ncn2Cc1cccc(Cl)c1
Result string: 91 % of control
